- study.target: CRFR1 (Homo sapiens)
- Sequence (P34998 24-415, species assumed): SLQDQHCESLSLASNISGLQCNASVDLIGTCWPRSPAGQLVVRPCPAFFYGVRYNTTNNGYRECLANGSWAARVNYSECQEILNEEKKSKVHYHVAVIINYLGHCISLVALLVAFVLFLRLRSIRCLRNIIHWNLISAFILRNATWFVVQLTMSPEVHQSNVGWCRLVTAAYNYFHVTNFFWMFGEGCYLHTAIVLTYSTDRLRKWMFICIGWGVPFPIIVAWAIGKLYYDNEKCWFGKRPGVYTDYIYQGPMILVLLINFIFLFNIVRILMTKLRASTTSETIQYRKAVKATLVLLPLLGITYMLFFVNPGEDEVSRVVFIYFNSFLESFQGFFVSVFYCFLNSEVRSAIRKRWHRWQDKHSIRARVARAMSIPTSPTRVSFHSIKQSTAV
- test.description: CRF1 antagonist effect (inhibition of CRFR1 cAMP signaling upon CRF binding)
- Assay type: cell-based
- Parameters: expressed in transfected cells; host or cells: COS-M6 (transiently transfected)
- experimental.context: values in nM
value.type: EC50 (nM)

INSERT INTO assay_data (molecule, study_target, value_type, readout_units, obs_value) VALUES
  ('CCC(COC)Oc1nc(C)nc(Nc2c(C)cc(C)cc2C)c1C (stereo not shown)', 'CRFR1 (Homo sapiens)', 'EC50', 'nM', 400);
